testName: clinical
reportedConditions: human
valueKind: half-life (h)
Numbers only, in h.

Any idea what half-life was measured for CO[C@H]1C[C@@H]2CC[C@@H](C)[C@@](O)(O2)C(=O)C(=O)N2CCCC[C@H]2C(=O)O[C@H]([C@H](C)C[C@@H]2CC[C@@H](O)[C@H](OC)C2)CC(=O)[C@H](C)/C=C(\C)[C@@H](O)[C@@H](OC)C(=O)[C@H](C)C[C@H](C)/C=C/C=C/C=C/1C ? 40
